Measured interaction score of individual entries
# assayed_system: T1, P4A-bA
# T1 chain: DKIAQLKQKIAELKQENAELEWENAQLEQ
# method_summary: two-hybrid library CCNG1;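 further: natural log of median RNA to DNA barcode read ratio; higher means stronger binding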
Just the number, please.

binder: DENAQLEQEIAELEQEIAELEWKNAQLKQ [P11A-bA]
interaction score: 1.83
--
binder: DEIAQLEQENAELEQENAELEWEIAQLEQ [P1A-bA]
interaction score: -1.08
--
binder: DEIAQLEQEIAELEQKNAELKWKNAQLKQ [P3A-bA]
interaction score: 2.18
--
binder: DKNAQLKQENAELEQKIAELKWKIAQLKQ [P10A-bA]
interaction score: 0.592
--
binder: DKIAQLKQKNAELKQKNAELKWKIAQLKQ [P2A-bA]
interaction score: 0.0163

In: Could you please provide reported interaction score for DKIAQLKQKIAELKQENAELEWENAQLEQ [P4A-bA] ? Thanks!
Out: -0.883

In: Could you please provide reported interaction score for DKNAQLKQKIAELKQKIAELKWENAQLEQ [P12A-bA] ? Thanks!
Out: -1.03
